- Tested on: MS2 coat protein
- assay.notes: apparent KD of MS2 coat protein; designed switch direction (-1 OFF switch, 1 ON switch): 1; higher = weaker reporter binding
- test.conditions: Eterna round: R95; input ligand: FMN 200 uM
assay.metric: apparent KD of MS2 coat protein (nM)
Field format: number, assumed nM, no unit text.

Example sequences with recorded apparent KD of MS2 coat protein:
{"seq.string": "AGUCCAGCCUGAGCUGGACAAAAGCAUGUACAUGAGGAUCACCCAUGUCAUGUACAAGCUUUUUGCUCGUCUUAGAA [Mat - hsa-mir-208a - Mod of JL - D26] (puzzle: Sensor for hsa-mir-208a)", "units": "nM", "quantitative.result": 624}
{"seq.string": "AGAAUACAUGAGGAUCACCCAUGUCAACGUAGUCGAGGAUAUGGGCAGCCGUGAGGCGUACUAGAAGGCGAAGAGA [Mat - Same State 1 - Mod of JL - D6] (puzzle: Same State 1)", "units": "nM", "quantitative.result": 99.8}

Field request: apparent KD of MS2 coat protein | item: GGAGCCGGCACCGAGGAUAUUCAUAUUAAAACAUGAGGAUCACCCAUGUAGAGCGAAAGCUCUUGGGAGAAGGCGGAUCGGCUCG [Xeonanis - 28] (puzzle: Same State 2) 34.1

Would you mind doing UUUUUUUUUUCGAGACAAGCUUUUUGAUCACAUGAGGAUCACCCAUGUCUCGUCUUAUUUUUUUUUUUUUUUUUUUU [BA Sensor hsa-mir-208a - 2 - 1] (puzzle: Sensor for hsa-mir-208a) as well? 343

Could you do the same for AGCUAUCGAAAACGAUAGCAAAAGCAUGUACAUGAGGAUCACCCAUGUCAUGUAUAAGCUUUUUGCUCGUCUUAAAA [Zipper 23 - 12] (puzzle: Sensor for hsa-mir-208a) , please? 42.7

====

- Test system: MS2 coat protein
- assay.notes: apparent KD of MS2 coat protein; higher = weaker reporter binding
- test.conditions: Eterna round: R107; input ligand: theophylline 2 mM
Classification by apparent KD of MS2 coat protein | ranges: low group: < 30 nM; middle group: ≥ 30 nM and < 100 nM; high group: ≥ 100 nM

The examples below pair each entry with its known result.
{"seq.string": "AACAUGAGGAUCACCCAUGUGUCCUCGAAACGAGGACCGGUACGGCCGCCACUCGAAAAGGUGUUGACGAAAAGUCAGCACCAAA [Mat - Exclusion - Trytophan A - D16]", "category.label": "high group"}
{"seq.string": "UCGCUAUUGUCGGCCGCCACUACUGCAGGGAAACAAAUAUAACCACAUGAGGAUCACCCAUGUCUUAGGACCGGGACACCCAUCU [theeternabot_sameState_MS2_Trp_B_2]", "category.label": "high group"}
{"seq.string": "GGUGGCGGGACUGAUACCAGCCACCACCGAUAGACCACAUGAGGAUCACCCAUGUUGGGUGGCCCUUGGCAGCAGUCUUGCUGCC [#1 Same State - Theophylline B Attempt #12 (HarryS)]", "category.label": "high group"}

Bin this entry: CCUCAAUAGACGGCCGCCACUGAGACAUGAGGAUACAUGAGGAUCACCCAUGUGGGUGUGUCACGCAGGACCGGGUCAAGACCCG [Tryp B SS t2] high group

Check UGAUCCUGCAGGGAUACCAGCGCCGCUAGAUAACUAUGCACAUGAGGAUCACCCAUGUAACGCCCUUGGCAGCCCAGCUAAAGGG [Same State Theophylline B GF22] too. middle group

# iterate: GCAGACAUGAGGAUCACCCAUGUACUUGGGCGAGGACCGGUACGGCCGCCACUCGUAGACUUGACGAGGAAAUGUUCUCGCAGGG [theeternabot_sameState_MS2_Trp_A_24] low group

Further, for UGUAUUGGAAACAGUACUAGUGAUCCGGUCCGAGGACCGGUACGGCCGCCACUCGAUAUAAAUAAACAUGAGGAUCACCCAUGUA [Ex Tryptophan A 13] ? low group

Next entry: AGUUGACGAAAGUCAGCAACAUGAUCCGAAGGAGCGGGCGAAAGCCCAGGUAGGUCGCGGACAUGAGGAUCACCCAUGUCUCCUU [MAT - Exclusion Arginine A - Mod of Eli - D12] middle group

====

Each entry below carries its reported apparent KD of MS2 coat protein.
- Tested on: MS2 coat protein
- assay.notes: apparent KD of MS2 coat protein, switch OFF state (with FMN for OFF switches, without FMN for ON switches); designed switch direction (-1 OFF switch, 1 ON switch): -1; higher = weaker reporter binding
- test.conditions: FMN input: 0 or 200 uM; Eterna round: R93 (includes R88 designs)
Field: numeric (nM). Do not append units.

Sample answers from the record:
{"seq.string": "GGAAAGUGAGGAUAUGCAUAACAAACACAAACACAAACAAAGCAGAAGGCACAUGAGGAUCACCCAUGUAAACA [Exclusion 4 Willow]", "apparent KD of MS2 coat protein / nM": 22.3}
{"seq.string": "GAAGAACAUGAGGAUCACCCAUGUCAGGAUAUGCAGAAGGGAAUAAUAACCUCUGGAAGCAGAAGGGACAAGAA [Ex 1 May 48]", "apparent KD of MS2 coat protein / nM": 59.4}
{"seq.string": "AUAGGCCAAGGAUAUACAUGAGGAUCACCCAUGUAAAUAACUCGAUCAAAAUAAACAAGUAGAAGGUGGAAUAA [JR_Exc003_Sub204]", "apparent KD of MS2 coat protein / nM": 29.4}
{"seq.string": "GCAUGCGAAGGAUAUACAUGAGGAUCACCCAUGUGAGAGAAAAAAGUGAGAAAGAAAAGUAGAAGGUCGUGUGG [salish99-ex3-94]", "apparent KD of MS2 coat protein / nM": 70.9}
{"seq.string": "AAGAAGUUAGGAUAUACAAAAUAAAAGAAAAGAAAGAAAGAACAUGAGGAUCACCCAUGUAGAAGGGACAAGAA [Nubkaure Amenemhat II]", "apparent KD of MS2 coat protein / nM": 33.9}

What does the record list as apparent KD of MS2 coat protein for AAAAAACAUGAGGAUCACCCAUGUGAGGAUAUCAGUAGUCAGUCCUCGGAGUGAGUACUGAGAAGGCACAUAAA [Brourd 613 Mod 2- Jieux - Exclusion 1] ? 113

====

- Tested on: MS2 coat protein
- assay.notes: apparent KD of MS2 coat protein, switch OFF state (with FMN for OFF switches, without FMN for ON switches); designed switch direction (-1 OFF switch, 1 ON switch): -1; higher = weaker reporter binding
- test.conditions: FMN input: 0 or 200 uM; Eterna round: R93 (includes R88 designs)
# cutoff 40 nM applies to apparent KD of MS2 coat protein; >= gives YES, < gives NO

Check this sequence for apparent KD of MS2 coat protein at or above 40 nM: GCUGUCGAAGGAUAUACAUGAGGAUCACCCAUGUGAGAGAAAAAAGUGAGAAAGAAAAGUAGAAGGUCGGUAGG [salish99-ex3-97] NO

Quick one: AAAAAGAUAGGAUAUACGAACAUGUCGAAAGACGUGAAGGGACAUGAGGAUCACCCAUGUAGAAGGAUUAAAAA [Mat - Exclusion 2 - JL mod - D89] NO

====

- Test system: MS2 coat protein
- assay.notes: apparent KD of MS2 coat protein; designed switch direction (-1 OFF switch, 1 ON switch): -1; higher = weaker reporter binding
- test.conditions: input ligand: microRNA oligo, concentration not stated
# apparent KD of MS2 coat protein listing for each entry below
Give a bare numeral; the unit nM is implied.

{"seq.string": "AGCCUACAUGAGGAUCACCCAUGUCAGGAUAUCUCGCGACAUGUCAAGUUCACGUUGCAGAGAAGGGACUCGGG [Ononxe] (Eterna round: R96, puzzle: Exclusion 1)", "target.under.test": "MS2 coat protein", "apparent KD of MS2 coat protein (nM)": 41}

Which apparent KD of MS2 coat protein value is on record for UGAGUGCUGCGAGGAUAUACAUGAGGAUCACCCAUGUAAACCUGUGAGGCUUUGCCUCACAGGAUGUAGAAGGCGCAGUACUCU [JL ENG2 1.16] (Eterna round: R96, puzzle: Exclusion NG 2) ? 9.94

Similarly, AAGAAGAAGUAAGGAUAUGAAGAUCUGGUGGUGACAUGAGGAUCACCCAUGUGAAAACGAUGAGAUCAGAAGGUAUAAGAAGAA [AK ExNG2-3.3] (Eterna round: R96, puzzle: Exclusion NG 2) ? 59.9

====

- Test system: MS2 coat protein
- assay.notes: apparent KD of MS2 coat protein; designed switch direction (-1 OFF switch, 1 ON switch): 1; higher = weaker reporter binding
- test.conditions: Eterna round: R98; input ligand: FMN 200 uM
Threshold check on apparent KD of MS2 coat protein: at or above 40 nM gives rule met, strictly below gives rule not met.

{"seq.string": "GCUUGCGACGCAGGAUAUGGGUGCCUAAACACGAGGAUCACCCGUGUACAGGAAGCGAAAAGCUCUCAGAAGGGCGUCGCAGGC [United States 8 - Jieux - Same State NG 2]", "target.under.test": "MS2 coat protein", "category.label": "rule not met"}
{"seq.string": "GGACUCACUUGAGGAUAUCGAGUGGAUAACACUCGAGAAGGCAGGAAAACCUGAGGAUCACCCAGGUAAGAGUCCAAUAAUAAU [Same State NG1 - A3C, U17G Submission 3D]", "target.under.test": "MS2 coat protein", "category.label": "rule not met"}
{"seq.string": "AAAACAUGAGGAUCACCCAUGUAUAGAACGGUUAAUAAAAGUGAGGAUAUACUAAAUUUUAUAUAGUAGAAGGCACUGGGUACU [JR_SSNG3_Sub010]", "target.under.test": "MS2 coat protein", "category.label": "rule not met"}
{"seq.string": "CCCUUUAGAAAAGGGACAUGAGGAUCACCCAUGUAGGCUGCACAGGAUAUCGAUCGGAGGCGGUACGAGAAGGGUGACGUCAUU [Zaarqu]", "target.under.test": "MS2 coat protein", "category.label": "rule met"}

# bool: apparent KD of MS2 coat protein of AAGAUACUUACAGGAUAUAGGGCAGAGGGUGCCCUAGAAGGGUGAACAUGAGGAUCACCCAUGUAUGUAUCUGAUUAGAAGGCA [Lezaraoren] >= 40 nM rule met

Then this sequence: GCUGCUAUCGCAGGAUAUUACAUGGGAAAGAAUACAUGAGGAUCACCCAUGUAAAAGAUCGUAAAUAAGAAGGGCGAUAGCAGC [Lame State 5 - Jieux - Same State NG 2] rule met

Now consider GUAGCUAUCGCAGGAUAUCCUCAGGCGAAAGCCACAUGAGGAUCACCCAUGUAAUUAAAGAAAUUGGAGAAGGGCGAUAGCUAC [jl-sng2-2.38 Eli mod] and answer again. rule not met

Can you handle CAUAUAUGGUGAGGAUAUGCAAAGGAUCACCUUGUAGAAGGCAUCAGGGUAGAAGGUGCAAGGAUCACCUGUAAGGAUAUAUCC [pwkr2 ssNG1 DX.26] next? rule met

Item: GGACUCACUUGAGGAUAUCGAGUGGAAUACACUCGAGAAGGCAGGGAAACCUGAGGAUCACCCAGGUAAGAGUCCAAUAAUAAA [Same State NG1 - A3C, U17G Submission 2C] rule not met

Quick one: ACAUACAUUCGAGGAUAUCGGUGAACAAAUUAACGAGAAGGCGAUAUAAUUUUUAAUCUUAUAAACAUGAGGAUCACCCAUGUA [JR_SSNG1_Sub001] rule not met

Would you mind doing GGAUCCAUCACAGGAUAUGCUGGACUUUGUCCAGCAGAAGGGUGAAACAUGAGGAUCACCCAUGUAAAGGAUCCUAUAUUUAAU [Denovo 26] as well? rule not met

Also, AAAACAUGAGGAUCACCCAUGUAUAGAUCGAUUAUUAGGAGUGAGGAUAUGCAAGUUAUAAGGAAGCAGAAGGCACAGGGAAAA [JR_SSNG3_Sub073] please. rule not met

What do you get for GUAGCAUACCGAGGAUAUUCAUAUAAUAAAUAAACAUGAGGACCACCCAUGUGGCGAAAGCCUUGGGAGAAGGCGGAAUGCUAC [Xeonanis 20 - mod55 1] ? rule met

Just for reference, the supplement of paper PMC9170038 is where these values come from.
